The values you see were collected from patent US10017475B2.

system: MDA-MB-231; test: Antiproliferative assay (resazurin, 72 h); type: cell-based, human; settings: Homo sapiens; MDA-MB-231, 72 h incubation; read-out: Growth Inhibition IC50 MDA-MB-231
readoutKind: IC50 (nM)
One number for each entry, in nM.

stdin: Report IC50 for COc1cc(-c2ccnc(-c3cc(OC)c(OC)c(OC)c3)c2)cc(OC)c1OC
stdout: 2630

* * *

Kindly supply the reported melting point values for the records listed here.

Here are 4 molecules together with their reported answers.
COc1ccc(-c2cccc(-c3c(OC)cc(OC)cc3OC)n2)c(OC)c1	144 to 145 °C
COc1ccc(-c2cccc(-c3ccc(O)cc3)n2)cc1OC	70 to 72 °C (dec.)
COc1ccc(-c2cccc(-c3ccc(O)cc3)n2)c(OC)c1	112 to 114 °C (dec.)
COc1ccc(-c2cccc(-c3cc(OC)c(OC)c(OC)c3)n2)c(OC)c1	115 to 117 °C

Record melting point per entry; entries follow.
1. COc1ccc(-c2cccc(-c3ccc(O)cc3)n2)cc1
2. COc1ccc(-c2cccc(-c3cc(OC)c(OC)c(OC)c3)n2)cc1
3. COc1ccc(-c2cccc(-c3ccc(OC)c(OC)c3)n2)cc1OC
4. COc1ccc(-c2cccc(-c3ccc(OC)cc3OC)n2)c(OC)c1

stdout:
["133 to 134 °C", "112 to 114 °C", "140 to 141 °C", "113 to 114 °C"]

* * *

Kindly supply the reported melting point values for the records listed here.

Here are 2 compounds together with their reported answers.
COc1cc(-c2ccc(Br)cn2)cc(OC)c1OC	49 to 50 °C
COc1cc(-c2cccc(-c3ccc(O)cc3)n2)cc(OC)c1OC	92 to 94 °C (dec.)

Record melting point per entry; entries follow.
1. COc1ccc(-c2ccc(-c3cc(OC)c(OC)c(OC)c3)nc2)cc1OC
2. COc1ccc(-c2cccc(-c3c(OC)cccc3OC)n2)c(OC)c1
3. COc1ccc(-c2cccc(-c3cc(OC)c(OC)c(OC)c3)n2)cc1OC
4. COc1ccc(-c2cccc(-c3ccc(OC)c(O)c3)n2)c(OC)c1
5. COc1cc(-c2cccc(Br)n2)cc(OC)c1OC
6. COc1ccc(-c2ccnc(-c3ccc(OC)cc3OC)c2)c(OC)c1

stdout:
1: 131 to 132 °C; 2: 155 to 156 °C; 3: 107 to 108 °C; 4: 142 to 144 °C; 5: 100 to 102 °C; 6: 95 to 97 °C

Record melting point per entry; entries follow.
1. COc1ccc(-c2cccc(-c3ccc(OC)cc3)n2)cc1
2. COc1ccc(-c2cccc(Br)n2)cc1

stdout:
["156 to 158 °C", "99 to 100 °C"]

* * *

readoutKind: melting point

Here are 3 molecules together with their reported answers.
COc1ccc(-c2ccc(-c3ccc(OC)cc3OC)nc2)c(OC)c1 [Compound 3g, 2,5-Bis(2,4-dimethoxyphenyl)pyridine]	124 to 125 °C
COc1ccc(-c2cccc(-c3cccc(OC)c3OC)n2)c(OC)c1 [Compound 4n]	79 to 80 °C
COc1ccc(-c2cccc(-c3ccc(OC)c(OC)c3)n2)c(OC)c1 [Compound 4e]	100 to 101 °C

Next molecule, melting point to be filled in.
stdin: Report melting point for COc1ccc(-c2cccc(-c3cc(OC)c(OC)c(OC)c3)n2)cc1O [Compound 4t]
stdout: 129 to 130 °C
